Origin of the recorded values: PubChem BioAssay (NCI)

Below, each entry is listed with its recorded TGI.
- System: DMS 114 small cell lung
- protocol text: NCI tumour cell line growth inhibition, 48 h
measurement name: TGI (µM)

compound="CC(C)Cc1ccc(C(C)/C=C2\\CCC(CN(C)C)C2=O)cc1 (configuration not stated)" censoring_sign== assay_result=46.1
compound=CCOC(=O)/C(=C/c1ccccn1)C(=O)c1ccccc1 censoring_sign== assay_result=28.5
compound="COc1cc(/C=C2\\NC(=O)C(Cc3cc(OC)c(OC)c(C)c3OC)N(C(C)=O)C2=O)c(OC)c(C)c1OC (configuration not stated)" censoring_sign=> assay_result=100
compound="O=C1C(Cl)N(c2ccccc2Cl)C1c1c[nH]c2ccccc12 (configuration not stated)" censoring_sign=> assay_result=100
compound=COc1ccc(-c2c(C3=NCCCN3)nnn2-c2ccccc2)cc1 censoring_sign=> assay_result=100
compound=CCc1cccc(CC)c1NC(=O)/C(Cl)=C(/Cl)C(=O)O censoring_sign== assay_result=40.9
compound=C[C@H](C(=O)O)C(=O)NC(=O)N(Cc1ccccc1)N=O censoring_sign=> assay_result=100
